Hey, just so you know, these numbers are from PubChem BioAssay AID1963445.

# Tested on: MCF7 complex spheroid growth, % test/control
# Method Description: Anticancer human tumor MCF7 cell line growth inhibition [Asc];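 also: spheroids exposed to compounds for 7 days; 100% = DMSO vehicle control wells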
# Test Context: second compound 0.01 µM; first compound 0.00316 µM; active compounds read low
Readout Label: viability, T/C (%)

Molecule	Result Units	Observed Result
Cn1ncnc1[C@H]1c2n[nH]c(=O)c3cc(F)cc(c23)N[C@@H]1c1ccc(F)cc1 + CNC(C)C(=O)NC1CN(S(=O)(=O)c2cccc(S(=O)(=O)N3CCC4CCC(C(=O)NC(c5ccccc5)c5ccccc5)N4C(=O)C(NC(=O)C(C)NC)C3)c2)CCC2CCC(C(=O)NC(c3ccccc3)c3ccccc3)N2C1=O	%	14.8
O=C(c1ccc(F)c(F)c1Nc1ccc(I)cc1F)N1CC(O)([C@@H]2CCCCN2)C1 + CNC(C)C(=O)NC1CN(S(=O)(=O)c2cccc(S(=O)(=O)N3CCC4CCC(C(=O)NC(c5ccccc5)c5ccccc5)N4C(=O)C(NC(=O)C(C)NC)C3)c2)CCC2CCC(C(=O)NC(c3ccccc3)c3ccccc3)N2C1=O	%	17.3
NC1CCC(NC2CC2c2ccccc2)CC1 (stereo not given) + CNC(C)C(=O)NC1CN(S(=O)(=O)c2cccc(S(=O)(=O)N3CCC4CCC(C(=O)NC(c5ccccc5)c5ccccc5)N4C(=O)C(NC(=O)C(C)NC)C3)c2)CCC2CCC(C(=O)NC(c3ccccc3)c3ccccc3)N2C1=O	%	12.2
CCN1CCN(Cc2ccc(Nc3ncc(F)c(-c4cc(F)c5nc(C)n(C(C)C)c5c4)n3)nc2)CC1 + CNC(C)C(=O)NC1CN(S(=O)(=O)c2cccc(S(=O)(=O)N3CCC4CCC(C(=O)NC(c5ccccc5)c5ccccc5)N4C(=O)C(NC(=O)C(C)NC)C3)c2)CCC2CCC(C(=O)NC(c3ccccc3)c3ccccc3)N2C1=O	%	17.1
COc1c(OCCCN2CCOCC2)ccc2c3n(c(=NC(=O)c4cnc(N)nc4)nc12)CCN3 + CNC(C)C(=O)NC1CN(S(=O)(=O)c2cccc(S(=O)(=O)N3CCC4CCC(C(=O)NC(c5ccccc5)c5ccccc5)N4C(=O)C(NC(=O)C(C)NC)C3)c2)CCC2CCC(C(=O)NC(c3ccccc3)c3ccccc3)N2C1=O	%	10.9
